Record form. Attribute: IC50. Fill in for each entry.
Target: HIV-I Protease (Human immunodeficiency virus type 1 group M subtype B)
Construct: HIV-I Protease: The enzyme is obtained from Bachem Bioscience Inc; purchased Bachem Bioscience Inc
Test: HIV protease inhibition (hydrolysis of undecapeptide substrate, HPLC readout)
Assay type: biochemical
Settings: 40 µM substrate, pH 4.7, 37 °C, 5 minutes; read-out: 50% Inhibition Concentration (Averaged)
Answers are plain numbers, in µM.

// each listed compound needs a value for IC50
1. O=c1oc(-c2ccc(O)cc2)cc(O)c1SCCc1ccccc1
2. O=c1oc(-c2cccc(O)c2)cc(O)c1SCc1ccccc1

Marked response:
0.5
1.2

---

System: HIV-1iiib
Experiment: Anti-HIV-1 activity, acute infection of H9 cells
Format: cell-based
Settings: Human immunodeficiency virus 1; H9 cell line infected with HIV-1iiib; reverse transcriptase assay at 4 and 7 days post infection; read-out: Concentration for 50% Protection
For each of the compounds below, state its EC50.
// unit must come after the numeric part

The examples below pair each entry with its known result.
O=c1oc(-c2ccc(OCc3cccnc3)cc2)cc(O)c1SCCc1ccccc1 :: 3 µM
O=c1oc(-c2ccc(OCc3ccccc3)cc2)cc(O)c1SCCc1ccccc1 :: 17 µM
Cc1cc(C)cc(-c2cc(O)c(SCc3ccccc3)c(=O)o2)c1 :: 29 µM
O=c1oc(-c2ccc3c(c2)OCCO3)cc(O)c1SCc1ccccc1 :: 15 µM

Now look at this one.
Exam item: Supply measured EC50 of O=c1oc(-c2ccccc2)cc(O)c1C(SC1CCCC1)C1CCCC1 (racemic) in your reply.
Marked response: 14 µM

---

Target: HIV-I Protease (Human immunodeficiency virus type 1 group M subtype B)
Construct: HIV-I Protease: The enzyme is obtained from Bachem Bioscience Inc; purchased Bachem Bioscience Inc
Assay: HIV protease inhibition (hydrolysis of undecapeptide substrate, HPLC readout)
Format: biochemical
Settings: read-out: 50% Inhibition Concentration (Averaged)
Could you please report measured IC50 for the items listed next?
Entry format: amount then unit.

// for each molecule in input: emit IC50
1. O=c1oc(-c2ccccc2)cc(O)c1C(CC1CC1)SC1CCCC1 (racemic)
2. O=c1oc(-c2ccc3c(c2)OCCO3)cc(O)c1SCc1ccccc1

Marked response:
1: 0.055 µM; 2: 0.48 µM

---

Molecular target: HIV-I Protease (Human immunodeficiency virus type 1 group M subtype B)
Construct: HIV-I Protease: The enzyme is obtained from Bachem Bioscience Inc; purchased Bachem Bioscience Inc
Test: HIV protease inhibition (hydrolysis of undecapeptide substrate, HPLC readout)
Assay type: biochemical
Conditions: 40 µM substrate, pH 4.7, 37 °C, 5 minutes; read-out: 50% Inhibition Concentration (Averaged)
# strict inequality: IC50 < 500 nM yields Yes, everything else yields No

The following compounds have reported results that may help.
O=c1oc(-c2ccc(OCc3ccccn3)cc2)cc(O)c1SCCc1ccccc1 :: No
O=c1oc(-c2ccccc2)cc(O)c1C(Sc1ccccc1)c1ccccc1 (racemic) :: No
O=c1oc(-c2ccc(Cl)c(Cl)c2)cc(O)c1SCc1ccccc1 :: No
CC(C)CC(SC1CCCCC1)c1c(O)cc(-c2ccc3c(c2)OCCO3)oc1=O (racemic) :: Yes
O=c1oc(-c2cccc(Cl)c2)cc(O)c1SCc1ccccc1 :: Yes
Cc1cc(C)cc(-c2cc(O)c(SCc3ccccc3)c(=O)o2)c1 :: Yes

Exam item: Dear reviewer, please state whether O=c1oc(-c2ccc(Oc3ccccc3)cc2)cc(O)c1SCCc1ccccc1 has IC50 strictly beneath 500 nM.
Marked response: No

Exam item: Hello, I'm reviewing records and need to know if IC50 of COc1ccccc1COc1ccc(-c2cc(O)c(SCCc3ccccc3)c(=O)o2)cc1 is below 500 nM. Could you check?
Marked response: Yes

Exam item: A record lists O=c1oc(-c2cccc(Cl)c2)cc(O)c1SCCc1ccccc1 . Is its IC50 below 500 nM?
Marked response: Yes

Exam item: Given the entry CC(C)c1ccccc1Sc1c(O)cc(-c2ccc(OCc3cccnc3)cc2)oc1=O , would its reported IC50 be below 500 nM?
Marked response: Yes

Exam item: I'd appreciate it if you could check whether Cc1cccc(-c2cc(O)c(SCc3ccccc3)c(=O)o2)c1 has IC50 smaller than 500 nM.
Marked response: No

Exam item: Problem: For the compound O=c1oc(-c2ccccc2)cc(O)c1SC/C=C/c1ccccc1 , is IC50 under 500 nM?
Marked response: No

---

I'd appreciate it if you could supply pIC50 values for the items below.
Biological target: HIV-I Protease (Human immunodeficiency virus type 1 group M subtype B)
Construct: HIV-I Protease: The enzyme is obtained from Bachem Bioscience Inc; purchased Bachem Bioscience Inc
Assay: HIV protease inhibition (hydrolysis of undecapeptide substrate, HPLC readout)
Type: biochemical
Conditions: 40 µM substrate, pH 4.7, 37 °C, 5 minutes; read-out: 50% Inhibition Concentration (Averaged)
One number for each entry, as −log10 of the molar value.

CC(C)CC(Sc1ccccc1)c1c(O)cc(-c2ccccc2)oc1=O (racemic) [Example 73] :: 6.39

Give pIC50 for all compounds that follow.
1. O=c1oc(-c2cccc(OCCc3ccccc3)c2)cc(O)c1SCCc1ccccc1 [Example 30]
2. O=c1oc(-c2ccc(OCc3cccnc3)cc2)cc(O)c1SCCc1ccccc1 [Example 64]
3. O=c1oc(-c2ccccc2)cc(O)c1SCCOc1ccccc1 [Example 20]
4. Cc1cc(C)cc(-c2cc(O)c(Sc3ccccc3)c(=O)o2)c1 [Example 148]
5. O=c1oc(-c2ccccc2)cc(O)c1C(SC1CCCC1)C1CCCC1 (racemic) [Example 151]
6. O=c1oc(-c2ccc(OCc3ccccc3)cc2)cc(O)c1SCCc1ccccc1 [Example 26]
7. O=c1oc(-c2cccc(OCc3ccccc3)c2)cc(O)c1SCCc1ccccc1 [Example 39]

Marked response:
1. 5.71
2. 5.82
3. 5.77
4. 6.20
5. 6.64
6. 6.48
7. 6.12
